These data points were gathered from the nanobody polyreactivity screen of Harvey et al. (2022).

# Test name: yeast display, Sf9 membrane polyspecificity reagent, FACS + sequencing; frameworks hold sequencing errors
Readout kind: polyreactivity (PSR sort gate)

Biopolymer sequence	Result
QVQLVESGGGLVQAGGSLRLSCAASGFTIGNYAMGWYRQAPGKERELVAAISSSGTSTYYADSVKGRFTISRDIAKNTVYLQMNSLKPEDTAVYYCAAEYIINYTIFEYWGQGTQLTVSS	high polyreactivity
QVQLVESRGGLLQAGGTLRLSCAASGLTITTYTMGWSIQAPGTERELVASINYRGGRTYYADSVKGRFSISRDNAKNTVYLQMNSLKPEDTAVYYCAKSRYYRRRQYYHYDYCGQGTQVTVSS	high polyreactivity
